Tested on: RXF 393
MEASUREMENT_NOTES: NCI SRB growth inhibition (single dose 10 µM / five-dose)
Type: cell-based, human
ASSAY_SETUP: Homo sapiens; RXF 393 (Renal cancer), 10 µM; read-out: GI%
# inhibition at 10 µM per entry

# example entries with known answers
COMPOUND	ASSAYED_TARGET	inhibition at 10 µM
COc1cccc(C=NNC(=O)c2ccc3[nH]c(-c4ccc(Cl)cc4)nc3c2)c1 [8q]	RXF 393	> 100%
COc1ccc(-c2nc3cc(C(=O)NN=Cc4cccc(OC)c4)ccc3[nH]2)cc1 [8j]	RXF 393	> 100%

Kindly consider the entry below.
Lab note: measured inhibition at 10 µM of COc1cccc(C=NNC(=O)c2ccc3[nH]c(-c4ccc(Cl)cc4)nc3c2)c1O [8r] was > 100%
